Taken from patent US20130109682A1.

Please respond with reported log10(IC50) for every item in the list.
- targetUnderTest: GSK3β (Homo sapiens)
- Sequence (P49841 whole entry, species assumed): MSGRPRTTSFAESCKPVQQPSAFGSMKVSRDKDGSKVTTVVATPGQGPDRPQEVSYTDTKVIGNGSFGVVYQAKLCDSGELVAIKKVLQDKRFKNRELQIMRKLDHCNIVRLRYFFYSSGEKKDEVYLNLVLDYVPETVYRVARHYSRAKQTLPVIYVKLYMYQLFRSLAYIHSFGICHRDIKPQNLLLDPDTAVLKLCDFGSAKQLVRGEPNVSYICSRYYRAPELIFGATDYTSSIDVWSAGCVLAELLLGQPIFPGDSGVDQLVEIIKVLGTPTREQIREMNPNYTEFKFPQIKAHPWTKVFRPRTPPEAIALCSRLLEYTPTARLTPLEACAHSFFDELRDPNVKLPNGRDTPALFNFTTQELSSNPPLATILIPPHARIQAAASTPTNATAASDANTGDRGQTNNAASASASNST
- testMethodNotes: GSK3β ATP depletion assay
- Format: biochemical
- assayConditions: read-out: GSK3b IC50
Plainly stated, the numbers are log10 of IC50 given in nM.

## Input Given the compound O=C(Nc1cnccc1[C@H]1C[C@@H](O)[C@@]2(O)CCC[C@H]2O1)c1c[nH]cc(-c2ccccc2)c1=O [Example 181] , what is its reported log10(IC50)?
## Output 3.62

## Input Could you share which log10(IC50) value was measured for Nc1cnc(-c2c(F)cccc2F)nc1C(=O)Nc1cnccc1[C@H]1C[C@@H](O)[C@H](O)[C@@H](CCl)O1 [Example 17] ?
## Output 1.82

## Input Give its log10(IC50) value. Item: C[C@H]1O[C@@H](c2ccncc2NC(=O)c2cccc(-c3ccccc3F)n2)C[C@@H](O)[C@]1(C)O [Example 92]
## Output 2.10

## Input Which log10(IC50) reading was recorded for the compound N#CC[C@H]1O[C@@H](c2ccncc2NC(=O)c2nc(-c3c(F)cccc3F)ncc2N)C[C@@H](O)[C@@H]1O [Example 138] ?
## Output 2.37

## Input Given the entry N#C[C@H]1OC(c2ccncc2NC(=O)c2nc(-c3c(F)cccc3F)c(F)cc2N)=C[C@@H](O)[C@@H]1O [Example 4] , report its measured log10(IC50).
## Output 2.43

## Input // log10(IC50) lookup, key: C[C@@H]1O[C@H](c2ccncc2NC(=O)c2cncc(-c3ccccc3)n2)C[C@H](O)[C@@]1(C)O [Example 87]
## Output 2.91
